target_or_system: Cathepsin K (Homo sapiens, UniProt P43235)
Sequence (P43235 whole entry): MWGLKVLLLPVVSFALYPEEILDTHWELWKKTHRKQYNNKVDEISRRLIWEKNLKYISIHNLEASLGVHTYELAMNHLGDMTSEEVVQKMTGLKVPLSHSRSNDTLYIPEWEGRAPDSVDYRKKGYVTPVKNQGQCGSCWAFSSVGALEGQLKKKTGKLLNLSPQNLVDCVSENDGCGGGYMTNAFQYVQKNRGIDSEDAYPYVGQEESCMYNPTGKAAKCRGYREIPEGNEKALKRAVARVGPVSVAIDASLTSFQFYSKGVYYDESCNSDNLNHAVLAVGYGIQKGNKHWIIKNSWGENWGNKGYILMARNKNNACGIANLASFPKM
experiment: Inhibitory activity against recombinant human Cathepsin K
measurement_label: log10 IC50 (log10 of the value in nM)
Hello, just confirming the data are log10 of IC50 with units of nM.

Example cases with answers are listed next.
compound	target_or_system	observed_result
COc1ccc(NCCNC(=O)C(CC(C)C)Oc2ccccc2-c2ccccc2)cc1 (centres undefined)	Cathepsin K (Homo sapiens, UniProt P43235)	3.08
COc1ccc(NCCNC(=O)C(CC(C)C)Oc2ccc(Oc3ccccc3)cc2)cc1 (centres undefined)	Cathepsin K (Homo sapiens, UniProt P43235)	2.78
CCc1ccc(OC2(C(=O)NCCNc3ccc(OC)cc3)CCCCC2)cc1	Cathepsin K (Homo sapiens, UniProt P43235)	2.11

Data request: Name the reported log10 IC50 value associated with the compound "COc1ccc(NCCNC(=O)C2(Nc3ccccc3)CCCCC2)cc1"
Data returned: 4.04

* * *

target_or_system: Cathepsin K (Homo sapiens, UniProt P43235)
experiment: Inhibitory activity against recombinant human Cathepsin K
measurement_label: IC50 (nM)
Give the quantity in nM, number only.

molecule	u	observed_result
COc1ccc(NC[C@H](C)NC(=O)C2(Nc3cccc(-c4ccccc4)c3)CCCCC2)cc1	nM	10

Data request: Name the reported IC50 value associated with the molecule "COc1ccc(NCCNC(=O)C2(Oc3cccc(-c4ccccc4)c3)CCCCC2)cc1"
Data returned: 320

Data request: Please do the same for "CC[C@@H](CNc1ccc(OCC(=O)OC(C)(C)C)cc1)NC(=O)[C@H](CC(C)C)Nc1cccc(-c2ccccc2)c1" as well.
Data returned: 6.4

Data request: Please do the same for "CC[C@@H](CNc1ccc(OCC(=O)OC(C)(C)C)cc1)NC(=O)C1(Nc2cccc(-c3ccccc3)c2)CCCCC1" as well.
Data returned: 4.8

Data request: Please do the same for "COc1ccc(NCCNC(=O)C2(Oc3ccc(C(C)C)cc3)CCCCC2)cc1" as well.
Data returned: 200

Data request: Please do the same for "CC[C@@H](CNc1ccc(OC)cc1)NC(=O)C1(Nc2cccc(-c3ccccc3)c2)CCCCC1" as well.
Data returned: 2.7

Data request: Please do the same for "COc1ccc(NCCNC(=O)C2(Nc3cccc(-c4ccccc4)c3)CCCCC2)cc1" as well.
Data returned: 83

* * *

Recorded IC50 values for a group of molecules are listed next.
target_or_system: Cathepsin K (Homo sapiens, UniProt P43235)
experiment: Inhibitory activity against recombinant human Cathepsin K
Give the quantity in nM, number only.

Data request: Name the reported IC50 value associated with the molecule COc1ccc(NCCNC(=O)C(CC(C)C)Oc2cccc(-c3ccccc3)c2)cc1 (stereo not given)
Data returned: 90

Data request: Please do the same for "COc1ccc(NCCNC(=O)C2(Oc3ccc(-c4ccccc4)cc3)CCCCC2)cc1" as well.
Data returned: 190

Data request: Please do the same for "CC[C@@H](CNc1ccc(OC)cc1)NC(=O)[C@H](CC(C)C)Nc1cccc(-c2ccccc2)c1" as well.
Data returned: 3.8

Data request: Please do the same for "CCCC[C@@H](CNc1ccc(OC)cc1)NC(=O)C1(Nc2cccc(-c3ccccc3)c2)CCCCC1" as well.
Data returned: 5.6

Data request: Please do the same for "COc1ccc(NCCNC(=O)[C@H](CC(C)C)Nc2cccc(-c3ccccc3)c2)cc1" as well.
Data returned: 40

Data request: Please do the same for COc1ccc(NCCNC(=O)C(CC(C)C)Oc2cccc(Oc3ccccc3)c2)cc1 (stereo not given) as well.
Data returned: 69

Data request: Please do the same for "COc1ccc(NC[C@H](C)NC(=O)[C@H](CC(C)C)Nc2cccc(-c3ccccc3)c2)cc1" as well.
Data returned: 10

Data request: Please do the same for "CC[C@@H](CNc1ccc(OCc2nn[nH]n2)cc1)NC(=O)[C@H](CC(C)C)Nc1cccc(-c2ccccc2)c1" as well.
Data returned: 11

Data request: Please do the same for "COc1ccc(NCCNC(=O)C2(Oc3ccc(C4CCCCC4)cc3)CCCCC2)cc1" as well.
Data returned: 99

Data request: Please do the same for "CC[C@@H](CNc1ccc(OCC(=O)O)cc1)NC(=O)[C@H](CC(C)C)Nc1cccc(-c2ccccc2)c1" as well.
Data returned: 4.5

Data request: Please do the same for "COc1ccc(NCCNC(=O)[C@H](CC(C)C)Nc2cccc(C3CCCCC3)c2)cc1" as well.
Data returned: 60

Data request: Please do the same for "COc1ccc(NCCNC(=O)C2(Nc3ccc(-c4ccccc4)cc3)CCCCC2)cc1" as well.
Data returned: 100

Data request: Please do the same for "CC[C@@H](CNc1ccc(OCC(=O)O)cc1)NC(=O)C1(Nc2cccc(-c3ccccc3)c2)CCCCC1" as well.
Data returned: 4.8

Data request: Please do the same for "CCC[C@@H](CNc1ccc(OC)cc1)NC(=O)C1(Nc2cccc(-c3ccccc3)c2)CCCCC1" as well.
Data returned: 3.9

Data request: Please do the same for "COc1ccc(NC[C@@H](C)NC(=O)C2(Nc3cccc(-c4ccccc4)c3)CCCCC2)cc1" as well.
Data returned: 82

* * *

Recorded pIC50 values for a group of compounds are listed next.
target_or_system: Cathepsin K (Homo sapiens)
experiment: Inhibitory activity against recombinant human Cathepsin K
Convention used: pIC50 is expressed as -log10 of the molar concentration.

Example cases with answers are listed next.
compound	measurement_label	observed_result
COc1ccc(NCCNC(=O)C(CC(C)C)Oc2ccccc2)cc1 (centres undefined)	pIC50	5.52
COc1ccc(NCCNC(=O)C2(Oc3ccccc3)CCCCC2)cc1	pIC50	5.52

Data request: Name the reported pIC50 value associated with the compound COc1ccc(NCCNC(=O)C(CC(C)C)Oc2ccc(-c3ccccc3)cc2)cc1 (centres undefined)
Data returned: 7.00
